# TARGET_OF_ASSAY: Endothelial lipase (EL) (Homo sapiens)
# Construct: HT-1080 cells, which were transformed by RAGE technology (Athersys) to overexpress endogenous EL; endogenous in cells; conditioned medium used as the enzyme source
# PROTOCOL_DETAILS: Endothelial lipase (EL) enzymatic assay with fluorescent substrate A10070 in DMPG vesicles
# Format: biochemical
# CONDITION_SET: conditioned media from HT-1080 cells overexpressing endogenous EL; 20 min preincubation at 37° C.; read-out: EL IC50
Catalogue of pIC50 readings, one per entry.
On this scale, pIC50 is minus log10 of a concentration expressed in M (mol/L).

Nc1c(C(=O)NC2CCCC(c3cnn(Cc4ccccc4)c3)C2)[nH]c(=O)[nH]c1=O (centres unmarked): 7.52
Nc1c(C(=O)NC2CCOc3ccccc32)[nH]c(=O)[nH]c1=O (centres unmarked): 5.43
Nc1c(C(=O)NC2CC=C(c3ccc(F)c(F)c3)CC2)[nH]c(=O)[nH]c1=O (centres unmarked): 5.72
Nc1c(C(=O)N[C@H]2CCc3ccc(C(F)(F)F)cc32)[nH]c(=O)[nH]c1=O: 4.89
Nc1c(C(=O)N[C@H]2CC[C@@H](NC(=O)c3nc4ccccc4s3)CC2)[nH]c(=O)[nH]c1=O: 5.92
Nc1c(C(=O)NC2CCCN(c3nccc(C(F)(F)F)n3)C2)[nH]c(=O)[nH]c1=O (centres unmarked): 5.24

Query: Please provide the recorded pIC50 for "Nc1c(C(=O)N[C@H]2CCCc3ccc(C(F)(F)F)cc32)[nH]c(=O)[nH]c1=O" , tested on Endothelial lipase (EL) (Homo sapiens).
Result: 5.15

Query: Please provide the recorded pIC50 for COc1ccc2c(c1)C(NC(=O)c1[nH]c(=O)[nH]c(=O)c1N)CC2 (single isomer, unassigned) [Example 72] , tested on Endothelial lipase (EL) (Homo sapiens).
Result: 4.65

* * *

# TARGET_OF_ASSAY: Endothelial lipase (EL) (Homo sapiens, UniProt Q9Y5X9)
# Construct: HT-1080 cells, which were transformed by RAGE technology (Athersys) to overexpress endogenous EL; endogenous in cells; conditioned medium used as the enzyme source
# PROTOCOL_DETAILS: Endothelial lipase (EL) enzymatic assay with fluorescent substrate A10070 in DMPG vesicles
# Type: biochemical
# CONDITION_SET: conditioned media from HT-1080 cells overexpressing endogenous EL; 20 min preincubation at 37° C.; read-out: EL IC50
EXPERIMENTAL_READOUT: pIC50
On this scale, pIC50 is minus log10 of a concentration expressed in M (mol/L).

Worked examples follow.
O=C(N[C@H]1CC[C@@H](c2ccccc2)CC1)c1[nH]c(=O)[nH]c(=O)c1NC1CCCC1: 6.18
O=C(N[C@H]1CC[C@@H](c2ccccc2)CC1)c1[nH]c(=O)[nH]c(=O)c1NCc1cccnc1: 6.29
Nc1c(C(=O)N[C@@H]2CC[C@H](c3ccc(-c4cnn(CCN5CCOCC5)c4)cc3)C2)[nH]c(=O)[nH]c1=O: 6.10

Next compound, pIC50 to be filled in.
Query: Using the record for "Nc1c(C(=O)N[C@H]2CCc3ccc(-c4ccccc4)cc32)[nH]c(=O)[nH]c1=O" , report its pIC50.
Result: 7.55

* * *

# TARGET_OF_ASSAY: Endothelial lipase (EL) (Homo sapiens, UniProt Q9Y5X9)
# Construct: HT-1080 cells, which were transformed by RAGE technology (Athersys) to overexpress endogenous EL; endogenous in cells; conditioned medium used as the enzyme source
# Sequence (Q9Y5X9 21-500): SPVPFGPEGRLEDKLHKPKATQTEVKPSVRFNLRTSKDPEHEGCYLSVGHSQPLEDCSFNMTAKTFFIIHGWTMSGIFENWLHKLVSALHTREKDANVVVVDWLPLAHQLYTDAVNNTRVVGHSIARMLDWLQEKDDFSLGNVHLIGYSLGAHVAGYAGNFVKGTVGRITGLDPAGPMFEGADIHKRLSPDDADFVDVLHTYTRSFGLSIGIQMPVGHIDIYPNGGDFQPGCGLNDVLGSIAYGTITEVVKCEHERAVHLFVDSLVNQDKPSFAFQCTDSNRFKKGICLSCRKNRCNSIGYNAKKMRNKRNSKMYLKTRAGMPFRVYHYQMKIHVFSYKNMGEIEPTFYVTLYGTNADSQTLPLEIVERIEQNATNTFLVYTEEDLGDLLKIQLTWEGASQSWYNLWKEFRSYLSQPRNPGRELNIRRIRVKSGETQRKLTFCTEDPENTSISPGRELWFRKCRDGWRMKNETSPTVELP
# PROTOCOL_DETAILS: Endothelial lipase (EL) enzymatic assay with fluorescent substrate A10070 in DMPG vesicles
# Format: biochemical
# CONDITION_SET: conditioned media from HT-1080 cells overexpressing endogenous EL; 20 min preincubation at 37° C.; read-out: EL IC50
pIC50: −log10 of the molar value.
Use 1 (yes) when the recorded pIC50 is no lower than 6; use 0 (no) when it is lower.

These recorded examples may help you get a feel for the data.
Nc1c(C(=O)NC2CCN(c3ncccc3Cl)C2)[nH]c(=O)[nH]c1=O (stereo not drawn) [Example 186]: 1 (yes)
Nc1c(C(=O)N[C@H]2CC[C@@H](c3nc(-c4ccc(Cl)c(Cl)c4)no3)CC2)[nH]c(=O)[nH]c1=O [Example 48]: 1 (yes)
O=C(N[C@H]1CC[C@@H](c2ccccc2)CC1)c1[nH]c(=O)[nH]c(=O)c1N[C@@H]1C[C@H]2CC[C@@H]1C2 [Example 231]: 0 (no)

Query: Please indicate if the recorded pIC50 for CC(C)Oc1ccc(C2CCC(NC(=O)c3[nH]c(=O)[nH]c(=O)c3N)C2)cc1 (stereo not drawn) [Example 142] meets or exceeds 6.
Result: 1 (yes)

Query: Please indicate if the recorded pIC50 for Nc1c(C(=O)N[C@@H]2CCc3c2cccc3C(F)(F)F)[nH]c(=O)[nH]c1=O [Example 14] meets or exceeds 6.
Result: 0 (no)

* * *

# TARGET_OF_ASSAY: Endothelial lipase (EL) (Homo sapiens)
# Construct: HT-1080 cells, which were transformed by RAGE technology (Athersys) to overexpress endogenous EL; endogenous in cells; conditioned medium used as the enzyme source
# Sequence (Q9Y5X9 21-500): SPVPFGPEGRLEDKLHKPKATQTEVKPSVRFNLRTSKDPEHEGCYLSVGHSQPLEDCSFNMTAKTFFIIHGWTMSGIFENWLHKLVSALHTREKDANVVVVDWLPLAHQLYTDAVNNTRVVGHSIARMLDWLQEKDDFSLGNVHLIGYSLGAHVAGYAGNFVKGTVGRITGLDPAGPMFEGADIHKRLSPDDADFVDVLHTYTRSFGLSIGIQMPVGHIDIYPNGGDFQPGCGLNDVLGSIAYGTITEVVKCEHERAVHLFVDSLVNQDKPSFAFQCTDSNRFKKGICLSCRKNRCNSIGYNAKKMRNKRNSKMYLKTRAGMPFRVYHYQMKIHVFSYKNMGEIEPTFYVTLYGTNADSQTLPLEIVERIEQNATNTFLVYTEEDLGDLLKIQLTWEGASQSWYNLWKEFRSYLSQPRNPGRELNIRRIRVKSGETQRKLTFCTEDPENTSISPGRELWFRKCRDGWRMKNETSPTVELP
# PROTOCOL_DETAILS: Endothelial lipase (EL) enzymatic assay with fluorescent substrate A10070 in DMPG vesicles
# Format: biochemical
# CONDITION_SET: conditioned media from HT-1080 cells overexpressing endogenous EL; 20 min preincubation at 37° C.; read-out: EL IC50
Catalogue of IC50 readings, one per entry.
Give your result in µM as a bare value.

Worked examples follow.
Nc1c(C(=O)N[C@@H]2CCc3c(-c4ccccc4)cccc32)[nH]c(=O)[nH]c1=O: 0.848
O=C(N[C@H]1CC[C@@H](c2ccccc2)CC1)c1[nH]c(=O)[nH]c(=O)c1NCCN1CCOCC1: 0.291
O=C(N[C@H]1CC[C@@H](c2ccccc2)CC1)c1[nH]c(=O)[nH]c(=O)c1NCCc1ccc(Cl)cc1: 0.296
Cc1nc(-c2ccccc2)sc1-c1ccc([C@@H]2CC[C@H](NC(=O)c3[nH]c(=O)[nH]c(=O)c3N)C2)cc1 (stereo in doubt): 1.48
Nc1c(C(=O)NC2CCCc3ccsc32)[nH]c(=O)[nH]c1=O (centres unmarked): 3.32

Query: Using the record for Cc1ccc(S(=O)(=O)Nc2ccc(C3CCCC(NC(=O)c4[nH]c(=O)[nH]c(=O)c4N)C3)cc2)cc1 (centres unmarked) , report its IC50.
Result: 0.013

Query: Using the record for "Nc1c(C(=O)N[C@@H]2CCc3ccc(-c4ccccc4)cc32)[nH]c(=O)[nH]c1=O" , report its IC50.
Result: 1.72

Query: Using the record for Nc1c(C(=O)NC2CCN(c3ncnc4[nH]ncc34)C2)[nH]c(=O)[nH]c1=O (centres unmarked) , report its IC50.
Result: 0.641

Query: Using the record for "Cn1nccc1-c1ccc([C@@H]2CC[C@H](NC(=O)c3[nH]c(=O)[nH]c(=O)c3N)C2)cc1" , report its IC50.
Result: 2.25

Query: Using the record for CCOC(=O)N1CCC(NC(=O)c2[nH]c(=O)[nH]c(=O)c2N)c2ccccc21 (racemic) , report its IC50.
Result: 1.06

Query: Using the record for "O=C(N[C@H]1CCCc2ccccc21)c1[nH]c(=O)[nH]c(=O)c1OCCO" , report its IC50.
Result: 9.56

Query: Using the record for Nc1c(C(=O)NC2CCC(NC(=O)Cc3nc4ccc(-c5ccccc5)cc4s3)C2)[nH]c(=O)[nH]c1=O (centres unmarked) , report its IC50.
Result: 3.68

Query: Using the record for O=C(NC1CCCC(c2cnn(Cc3ccccc3)c2)C1)c1[nH]c(=O)[nH]c(=O)c1O (racemic) , report its IC50.
Result: 0.01
